biological target: ABCB1/Pgp (Homo sapiens, UniProt P08183); assay: ABCB1-ATPase activity in Sf9 membrane vesicles
Sequence (P08183 whole entry): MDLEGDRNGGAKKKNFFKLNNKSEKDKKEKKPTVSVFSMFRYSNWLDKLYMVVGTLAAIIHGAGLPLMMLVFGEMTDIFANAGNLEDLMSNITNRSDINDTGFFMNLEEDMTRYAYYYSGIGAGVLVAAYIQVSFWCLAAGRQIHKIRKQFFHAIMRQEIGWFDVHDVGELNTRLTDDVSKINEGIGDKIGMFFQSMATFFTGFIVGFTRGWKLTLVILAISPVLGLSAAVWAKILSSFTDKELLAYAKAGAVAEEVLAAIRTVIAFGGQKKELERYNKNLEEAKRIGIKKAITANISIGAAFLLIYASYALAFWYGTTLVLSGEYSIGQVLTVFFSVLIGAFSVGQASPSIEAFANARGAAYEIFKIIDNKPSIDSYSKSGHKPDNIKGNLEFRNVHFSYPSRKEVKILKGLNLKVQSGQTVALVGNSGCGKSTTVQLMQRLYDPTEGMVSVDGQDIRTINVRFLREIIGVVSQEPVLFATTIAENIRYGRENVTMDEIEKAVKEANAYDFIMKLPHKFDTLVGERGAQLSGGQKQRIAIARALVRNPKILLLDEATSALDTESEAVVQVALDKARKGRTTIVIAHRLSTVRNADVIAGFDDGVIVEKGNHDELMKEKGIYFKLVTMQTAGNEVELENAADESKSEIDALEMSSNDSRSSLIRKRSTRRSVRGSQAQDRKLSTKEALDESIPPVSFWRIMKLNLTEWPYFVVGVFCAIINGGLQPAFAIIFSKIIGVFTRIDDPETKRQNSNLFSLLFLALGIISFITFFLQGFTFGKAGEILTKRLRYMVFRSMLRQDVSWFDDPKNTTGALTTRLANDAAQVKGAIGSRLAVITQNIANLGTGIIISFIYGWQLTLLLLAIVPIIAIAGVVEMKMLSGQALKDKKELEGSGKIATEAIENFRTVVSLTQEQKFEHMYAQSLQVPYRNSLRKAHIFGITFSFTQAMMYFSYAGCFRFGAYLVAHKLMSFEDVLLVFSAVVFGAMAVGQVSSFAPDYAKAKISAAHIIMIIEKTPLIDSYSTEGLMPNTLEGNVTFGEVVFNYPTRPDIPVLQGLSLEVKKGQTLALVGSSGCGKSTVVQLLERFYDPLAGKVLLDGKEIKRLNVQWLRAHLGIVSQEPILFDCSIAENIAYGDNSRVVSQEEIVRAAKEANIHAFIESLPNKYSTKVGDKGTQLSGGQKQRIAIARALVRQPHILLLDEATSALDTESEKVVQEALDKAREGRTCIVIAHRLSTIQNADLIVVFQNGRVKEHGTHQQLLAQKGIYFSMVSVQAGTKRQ
pEC50: −log10 of the molar value.
property.label: pEC50

The value of pEC50 measured for the compound CCC(CC)COC(=O)[C@H](C)N[P@](=O)(OC[C@H]1O[C@@](C#N)(c2ccc3c(N)ncnn23)[C@H](O)[C@@H]1O)Oc1ccccc1 [remdesivir] turned out to be ~5.00

====

molecular target: ABCC1/MRP1 (Homo sapiens); settings: Sf9/ABCC1 membrane vesicles
Sequence (P33527 whole entry): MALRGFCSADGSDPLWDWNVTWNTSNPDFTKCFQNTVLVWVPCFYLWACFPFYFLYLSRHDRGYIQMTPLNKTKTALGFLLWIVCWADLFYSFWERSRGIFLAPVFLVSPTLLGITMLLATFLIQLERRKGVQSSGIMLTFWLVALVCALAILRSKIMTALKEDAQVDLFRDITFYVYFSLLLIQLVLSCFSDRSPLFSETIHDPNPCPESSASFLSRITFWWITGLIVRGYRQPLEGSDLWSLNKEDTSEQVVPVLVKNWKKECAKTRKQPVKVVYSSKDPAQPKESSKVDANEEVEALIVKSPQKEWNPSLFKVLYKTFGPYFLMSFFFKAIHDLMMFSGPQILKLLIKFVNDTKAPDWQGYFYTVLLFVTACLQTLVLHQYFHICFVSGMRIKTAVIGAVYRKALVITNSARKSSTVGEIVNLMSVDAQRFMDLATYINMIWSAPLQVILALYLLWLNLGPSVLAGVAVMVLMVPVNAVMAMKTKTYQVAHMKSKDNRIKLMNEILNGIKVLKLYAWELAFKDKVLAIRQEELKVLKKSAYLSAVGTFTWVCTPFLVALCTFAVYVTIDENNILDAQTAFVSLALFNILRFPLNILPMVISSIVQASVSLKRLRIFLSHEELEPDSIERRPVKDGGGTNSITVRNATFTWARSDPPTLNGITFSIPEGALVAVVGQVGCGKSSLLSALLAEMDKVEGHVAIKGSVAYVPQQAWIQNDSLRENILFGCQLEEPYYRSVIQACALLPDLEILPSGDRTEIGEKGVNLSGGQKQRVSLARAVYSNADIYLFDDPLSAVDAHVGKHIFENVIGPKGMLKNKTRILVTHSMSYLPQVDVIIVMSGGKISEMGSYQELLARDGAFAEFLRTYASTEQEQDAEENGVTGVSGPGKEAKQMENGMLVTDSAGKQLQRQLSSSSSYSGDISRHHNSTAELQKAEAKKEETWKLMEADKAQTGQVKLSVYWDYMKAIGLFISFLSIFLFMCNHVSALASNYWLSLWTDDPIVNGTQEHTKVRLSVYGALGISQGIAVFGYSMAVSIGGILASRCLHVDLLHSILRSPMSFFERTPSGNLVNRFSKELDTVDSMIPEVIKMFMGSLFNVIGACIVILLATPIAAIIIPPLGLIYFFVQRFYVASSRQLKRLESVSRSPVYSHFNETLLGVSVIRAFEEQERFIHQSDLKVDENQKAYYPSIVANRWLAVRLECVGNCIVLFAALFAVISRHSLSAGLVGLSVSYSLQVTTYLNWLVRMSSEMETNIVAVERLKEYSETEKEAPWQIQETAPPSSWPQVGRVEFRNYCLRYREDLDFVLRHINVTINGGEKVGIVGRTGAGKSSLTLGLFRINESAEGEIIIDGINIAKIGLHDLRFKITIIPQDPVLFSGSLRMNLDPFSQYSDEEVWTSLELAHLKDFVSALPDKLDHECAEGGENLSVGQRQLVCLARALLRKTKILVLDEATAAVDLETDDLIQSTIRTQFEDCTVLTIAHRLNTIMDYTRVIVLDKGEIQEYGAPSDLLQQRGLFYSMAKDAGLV
property.label: Effect on ABCC1 vesicular ETGB transport (in words)

CC(C)c1nc(CN(C)C(=O)N[C@H](C(=O)N[C@@H](Cc2ccccc2)C[C@H](O)[C@H](Cc2ccccc2)NC(=O)OCc2cncs2)C(C)C)cs1 [ritonavir] ... practically no effect
NC(=O)c1nc(F)c[nH]c1=O [favipiravir] ... practically no effect
CCN(CCO)CCCC(C)Nc1ccnc2cc(Cl)ccc12 (stereo not shown) [hydroxychloroquine] ... practically no effect
